- System: ALPK1-dependent NFκB reporter gene activation in HEK293 cells stably expressing an NF-kB reporter (G9 cells)
- RUN_DESCRIPTION: NFκB gene reporter alkaline phosphatase assay
- Format: cell-based
- ASSAY_CONDITIONS: Homo sapiens, HEK293; read-out: NFkB assay IC50
As shown below, each of these compounds has a reported IC50 value.
Report as a plain number; the unit nM is understood.

COMPOUND | MEASUREMENT_NAME | REPORTED
CC(C)(c1ccc(Br)cc1)c1csc(NC(=O)NCc2ccc(N3CCN(CCO)CC3)nc2)n1 | IC50 | 3950

Quick note, IC50 for `CN1CCN(Cc2c(F)cc(CNC(=O)Nc3nc(C(C)(C)c4ccc(Br)cc4)cs3)cc2F)CC1` landed at 5030

Noted for `CCOc1ccc(C(C)(C)c2csc(NC(=O)NCc3cnc(N4CCNCC4)nc3)n2)cc1` : its IC50 reads 1740

For reference, reported IC50 for COc1ccc(C(C)(C)c2csc(NC(=O)NCCCN3CCC(O)C3)n2)cc1 (stereo not shown) stands at 1240

Recorded result, C#C[C@@](C)(c1ccc(Cl)cc1)c1csc(NC(=O)NCC(C)O)n1 (stereo in doubt) , IC50: 970

IC50 reading for `COc1ccc(C(C)(C)c2csc(NC(=O)NCc3ccc(N(C)CCO)nc3)n2)cc1` : 1320

---

- Test system: ALPK1-dependent NFκB reporter gene activation in HEK293 cells stably expressing an NF-kB reporter (G9 cells)
- RUN_DESCRIPTION: NFκB gene reporter alkaline phosphatase assay
- Assay type: cell-based
- ASSAY_CONDITIONS: Homo sapiens, HEK293; read-out: NFkB assay IC50
// values below are reported IC50
The response must be a number in µM with no trailing unit.

Entry CN1CCC(NC(=O)C2CCC(CNC(=O)Nc3nc(C(C)(C)c4ccc(Br)cc4)cs3)CC2)CC1 (stereo not shown) ; IC50 = 1.37

---

- System: ALPK1-dependent NFκB reporter gene activation in HEK293 cells stably expressing an NF-kB reporter (G9 cells)
- RUN_DESCRIPTION: NFκB gene reporter alkaline phosphatase assay
- Assay type: cell-based
- ASSAY_CONDITIONS: Homo sapiens, HEK293; read-out: NFkB assay IC50
// map IC50 onto a label; ranges Low: < 1000 nM; Mid: ≥ 1000 nM and < 2000 nM; High: ≥ 2000 nM

For orientation, consider the following solved cases.
COMPOUND | CLASS
CC(C)(c1ccc(Br)cc1)c1csc(NC(=O)NCc2ccc(N3CCNCC3)c(N)c2)n1 | Mid
CC(C)(c1ccc(Cl)cc1)c1csc(NC(=O)NCc2ccc(N3CCNCC3)cc2)n1 | Mid
C#C[C@](C)(c1ccc(OC)cc1)c1csc(NC(N)=O)n1 | Mid
COc1ccc(C(C)(C)c2csc(NC(=O)NCCN3CCC(N)C3)n2)cc1 (stereo not drawn) | High
CC(C)(c1ccc(I)cc1)c1csc(NC(=O)NCc2ccc(N3CCNCC3)cc2)n1 | Mid

Turning now to a further record.
Class label required: `C#C[C@@](C)(c1ccc(Cl)cc1)c1csc(NC(=O)NC2(CO)CC2)n1`
Mid

---

Each item that follows carries a reported pIC50.
- TARGET_OR_TEST_SYSTEM: ALPK1 (Homo sapiens (Human))
- Sequence (Q96QP1 whole entry): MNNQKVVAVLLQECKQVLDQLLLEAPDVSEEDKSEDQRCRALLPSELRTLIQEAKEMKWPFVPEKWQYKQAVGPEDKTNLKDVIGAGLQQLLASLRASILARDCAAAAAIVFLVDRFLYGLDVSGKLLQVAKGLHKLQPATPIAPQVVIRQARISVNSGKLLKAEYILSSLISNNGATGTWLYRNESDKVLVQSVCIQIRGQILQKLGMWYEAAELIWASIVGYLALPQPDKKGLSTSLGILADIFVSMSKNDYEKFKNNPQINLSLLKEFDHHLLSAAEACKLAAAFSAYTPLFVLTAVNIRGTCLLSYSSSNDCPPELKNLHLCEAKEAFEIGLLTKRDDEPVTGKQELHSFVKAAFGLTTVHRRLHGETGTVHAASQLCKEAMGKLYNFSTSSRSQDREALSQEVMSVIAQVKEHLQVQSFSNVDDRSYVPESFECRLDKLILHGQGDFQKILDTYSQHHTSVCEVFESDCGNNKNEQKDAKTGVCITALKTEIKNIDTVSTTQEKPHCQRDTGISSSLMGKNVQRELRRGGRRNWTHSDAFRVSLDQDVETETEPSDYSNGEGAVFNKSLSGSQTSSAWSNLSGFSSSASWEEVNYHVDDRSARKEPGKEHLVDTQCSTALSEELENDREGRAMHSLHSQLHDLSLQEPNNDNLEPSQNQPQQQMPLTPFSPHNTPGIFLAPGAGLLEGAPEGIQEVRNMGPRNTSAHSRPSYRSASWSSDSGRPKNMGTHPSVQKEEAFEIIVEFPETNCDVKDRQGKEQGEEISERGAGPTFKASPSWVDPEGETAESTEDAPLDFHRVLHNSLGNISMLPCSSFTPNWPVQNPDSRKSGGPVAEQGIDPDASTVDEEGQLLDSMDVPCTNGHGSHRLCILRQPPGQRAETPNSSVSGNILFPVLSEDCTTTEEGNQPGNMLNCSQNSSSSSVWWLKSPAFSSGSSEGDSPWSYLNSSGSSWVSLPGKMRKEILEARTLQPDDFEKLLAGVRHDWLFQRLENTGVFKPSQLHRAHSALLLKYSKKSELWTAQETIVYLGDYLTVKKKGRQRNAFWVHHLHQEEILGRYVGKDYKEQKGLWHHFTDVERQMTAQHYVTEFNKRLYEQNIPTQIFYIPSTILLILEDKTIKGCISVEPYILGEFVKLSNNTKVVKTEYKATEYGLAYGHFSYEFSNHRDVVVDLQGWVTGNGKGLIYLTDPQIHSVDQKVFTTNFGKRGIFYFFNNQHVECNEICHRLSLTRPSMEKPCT
- RUN_DESCRIPTION: ALPK1 in vitro kinase assay (HTRF of TIFA phosphorylation)
- Assay type: biochemical
# reply with the number alone; pIC50 is -log10 of concentration in mol/L

Examples from the recorded data:
COMPOUND | REPORTED
CC(NC(=O)Nc1nc(C(C)(C)c2ccc(Br)cc2)cs1)c1ccc(CN2CCN(C)CC2)cc1 (centres unmarked) | 6.64
COc1ccc(C(C)(C)c2csc(NC(=O)NCCCN(C)C)n2)cc1 | 6.67
C#CC(C)(c1ccc(Cl)cc1)c1csc(NC(=O)NCC(O)CO)n1 (centres unmarked) | 7.14
CC(C)(c1ccc(Br)cc1)c1csc(NC(=O)NCCS(N)(=O)=O)n1 | 6.66
C#C[C@](C)(c1ccc(Cl)cc1)c1csc(NC(=O)NC(C)(C)CO)n1 (stereo in doubt) | 5.03
C#CC(C)(c1ccc(Cl)cc1)c1csc(NC(=O)N2CCC(N)CC2)n1 (centres unmarked) | 5.30
COc1ccc(C(C)(C)c2csc(NC(=O)NCc3cnc(N4CCC(N(C)C)C4)nc3)n2)cc1 (centres unmarked) | 7.40
COc1ccc(C(C)(C)c2csc(NC(=O)NCc3ccc(CO)cc3)n2)cc1 | 6.88

GET /value?item= `CC(C)(c1ccc(Br)cc1)c1csc(NC(=O)NCc2ccc(N3CCNCC3)c(N)c2)n1` &field=pIC50 returns 7.51

Entry under test: CC(C)(c1ccc(Br)cc1)c1csc(NC(=O)NC(CO)c2ccc(N3CCNCC3)cc2)n1 (centres unmarked) . Its pIC50 was 7.30

The compound listed as COc1ccc(C(C)(C)c2csc(NC(=O)NCCCN3CCC(N(C)C)C3)n2)cc1 (centres unmarked) has a reported pIC50 of 6.64

Lookup result for `CC(C)(c1ccc(Br)cc1)c1csc(NC(=O)NCc2ccc(NCCN)c(F)c2)n1` ; measured pIC50: 7.74

Summary for this compound, `COc1ccc(C(C)(C)c2csc(NC(=O)NCc3ccc(NCCN)cc3)n2)cc1` : pIC50 is 7.28

The compound `CC(C)(c1ccc(Br)cc1)c1csc(NC(=O)NCc2ccnc(N3CCNCC3)n2)n1` showed pIC50 equal to 6.75

Measured pIC50, `COCCCNC(=O)Nc1nc(C(C)(C)c2ccc(OC)cc2)cs1` : 6.90

Record C#C[C@](C)(c1ccc(Cl)cc1)c1csc(NC(=O)NC(CO)CO)n1 (stereo in doubt) , field pIC50: 6.03

Input C#CC(C)(c1ccc(Cl)cc1)c1csc(NC(=O)N(C)CCO)n1 (centres unmarked) [Example A254] . Output pIC50: 6.26
